Biological target: T1, NHERF1 PDZ1 domain (human, UniProt O14745 1-139)
T1 sequence (looked up): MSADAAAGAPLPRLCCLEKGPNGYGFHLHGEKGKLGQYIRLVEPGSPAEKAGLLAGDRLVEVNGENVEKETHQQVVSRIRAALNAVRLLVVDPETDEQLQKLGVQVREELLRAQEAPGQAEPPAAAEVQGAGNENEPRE
Experiment: fluorescence polarisation
No end group written: not given here.
Kd values by entry

- BINDER: "fluorescein-GGAALKEETEEEVQDTRL [F*GG-CFTR16]"
  Kd / nM: 116
- BINDER: "fluorescein-TEEEVQDTRL [F*-CFTR10]"
  Kd / nM: 279
- BINDER: "C(fluorescein‑5‑maleimide)DTRL [F*C-CFTR4]"
  Kd / nM: 949
